Some molecules, each annotated with its measured IC50.
# tested system: BTK (Homo sapiens (Human))
# Sequence (Q06187 whole entry): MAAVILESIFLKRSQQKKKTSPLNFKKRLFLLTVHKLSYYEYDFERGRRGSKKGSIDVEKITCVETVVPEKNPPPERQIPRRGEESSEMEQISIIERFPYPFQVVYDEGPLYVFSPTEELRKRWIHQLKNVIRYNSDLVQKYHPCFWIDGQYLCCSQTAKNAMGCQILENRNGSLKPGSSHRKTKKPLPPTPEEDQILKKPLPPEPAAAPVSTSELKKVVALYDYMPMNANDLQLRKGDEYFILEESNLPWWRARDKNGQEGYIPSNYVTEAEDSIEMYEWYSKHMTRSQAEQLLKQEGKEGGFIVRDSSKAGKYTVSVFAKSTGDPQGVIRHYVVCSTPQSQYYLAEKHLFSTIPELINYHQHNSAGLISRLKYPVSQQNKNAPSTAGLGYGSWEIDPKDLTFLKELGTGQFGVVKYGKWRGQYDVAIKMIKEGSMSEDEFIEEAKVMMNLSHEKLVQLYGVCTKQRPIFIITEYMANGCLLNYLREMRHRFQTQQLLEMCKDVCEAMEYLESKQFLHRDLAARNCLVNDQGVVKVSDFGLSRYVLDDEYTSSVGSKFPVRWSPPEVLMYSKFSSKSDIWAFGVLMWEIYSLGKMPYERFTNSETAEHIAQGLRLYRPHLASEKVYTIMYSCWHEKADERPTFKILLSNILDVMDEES
# protocol details: In vitro BTK kinase assay: BTK-POLYGAT-LS ASSAY
# condition parameters: read-out: IC50 (10 uM ATP); 10 uM ATP; in vitro Btk kinase assay, Example 41
reported metric: IC50

[[record]]
molecule = "O=C1C(NC2CCCCC2)CCCN1[C@@H]1CCCN(c2ncnc3[nH]ccc23)C1 (stereo partly shown)"
reported_metric = "IC50"
assay_result = "> 10 µM"

[[record]]
molecule = "O=C(Nc1cccc(C2CN(c3ncnc4[nH]ccc34)CCN2CCO)c1)Nc1c(F)cccc1N1CCCC1 (stereo not shown)"
reported_metric = "IC50"
assay_result = "< 0.1 µM"

[[record]]
molecule = "CC(C)(C)c1cccc(NC(=O)Nc2cccc(C3CCCN(c4ncnc5[nH]ccc45)C3)c2)c1 (stereo not shown)"
reported_metric = "IC50"
assay_result = "> 10 µM"

[[record]]
molecule = "Cc1cc(NC(=O)Nc2cccc(C3CCCN(c4ncnc5[nH]ccc45)C3)c2)n(CCN(C)C)n1 (stereo not shown)"
reported_metric = "IC50"
assay_result = "> 10 µM"


* * *

# tested system: BTK (Homo sapiens (Human))
# protocol details: In vitro BTK kinase assay: BTK-POLYGAT-LS ASSAY
# condition parameters: read-out: IC50 (10 uM ATP); 10 uM ATP; in vitro Btk kinase assay, Example 41
reported metric: IC50

[[record]]
compound = "Nc1ncnc(N2CCC[C@@H](N3CCCC(Nc4cc(F)cc(Cl)c4)C3=O)C2)c1F (stereo in doubt) [compound 314]"
assay_result = "< 0.1 µM"

[[record]]
compound = "O=C(Nc1csc(C2CCCN(c3ncnc4[nH]ccc34)C2)n1)Nc1c(F)cc(F)cc1N1CCCC1 (stereo not shown)"
assay_result = "< 0.1 µM"

[[record]]
compound = "O=C(Nc1cccc(C2CCCN(c3ncnc4[nH]ccc34)C2)c1)c1c(Cl)cccc1Cl (stereo not shown)"
assay_result = "> 10 µM"

[[record]]
compound = "O=C(Nc1cccc(C2CCCN(c3ncnc4[nH]ccc34)C2)c1)Nc1ccccc1N1C[C@@H](O)[C@@H](O)C1 (stereo partly shown)"
assay_result = "< 0.1 µM"

[[record]]
compound = "O=C(Nc1cccc(C2CCCN(c3ncnc4[nH]ccc34)C2)c1)Nc1c(F)cccc1N1CCCC1 (stereo not shown)"
assay_result = "< 0.1 µM"

[[record]]
compound = "O=C(Nc1cccc(C2CCCN(c3ncnc4[nH]ccc34)C2)c1)c1ccncc1 (stereo not shown)"
assay_result = "> 10 µM"

[[record]]
compound = "CN/C(=N/C#N)Nc1cccc(C2CCCN(c3ncnc4[nH]ccc34)C2)c1 (stereo not shown)"
assay_result = "> 10 µM"

[[record]]
compound = "Nc1ncnc(N2CCC[C@@H](N3CCCC(NC4CCC(F)(F)CC4)C3=O)C2)c1F (stereo partly shown)"
assay_result = "> 10 µM"

[[record]]
compound = "CS(=O)(=O)N1CCN(c2ncnc3[nH]ccc23)CC1c1cccc(NC(=O)Nc2ccccc2)c1 (stereo not shown)"
assay_result = "> 10 µM"

[[record]]
compound = "O=C(Nc1cccc(C2CCCN(c3ncnc4[nH]ccc34)C2)c1)Nc1c(Cl)cccc1N1CCCC1 (stereo not shown)"
assay_result = "< 0.1 µM"

[[record]]
compound = "O=C1C(Nc2ccccc2S(=O)(=O)N2CCCCC2)CCCN1[C@@H]1CCCN(c2ncnc3[nH]ccc23)C1 (stereo partly shown)"
assay_result = "< 0.1 µM"

[[record]]
compound = "O=C(Nc1cccc(C2CCCN(c3ncnc4[nH]ccc34)C2)c1)NC1CCCNC1 (stereo not shown)"
assay_result = "> 10 µM"

[[record]]
compound = "O=C(Nc1ccccc1)N[C@H]1CCCN(C2CCCN(c3ncnc4[nH]ccc34)C2)C1 (stereo partly shown)"
assay_result = "> 10 µM"

[[record]]
compound = "Cc1nn(C)c(C)c1NC(=O)Nc1cccc(C2CCCN(c3ncnc4[nH]ccc34)C2)c1 (stereo not shown)"
assay_result = "> 10 µM"

[[record]]
compound = "Nc1ncnc(N2C[C@@H](O)C[C@@H](N3CCCC(Nc4cc(Cl)cc(Cl)c4)C3=O)C2)c1F (stereo partly shown)"
assay_result = "< 0.1 µM"

[[record]]
compound = "O=C(Nc1cccc(C2CCCN(c3ncnc4[nH]ccc34)C2)c1)c1ccccc1Cl (stereo not shown)"
assay_result = "> 10 µM"

